Target: Msn1 (UniProt P22148)
Sequence: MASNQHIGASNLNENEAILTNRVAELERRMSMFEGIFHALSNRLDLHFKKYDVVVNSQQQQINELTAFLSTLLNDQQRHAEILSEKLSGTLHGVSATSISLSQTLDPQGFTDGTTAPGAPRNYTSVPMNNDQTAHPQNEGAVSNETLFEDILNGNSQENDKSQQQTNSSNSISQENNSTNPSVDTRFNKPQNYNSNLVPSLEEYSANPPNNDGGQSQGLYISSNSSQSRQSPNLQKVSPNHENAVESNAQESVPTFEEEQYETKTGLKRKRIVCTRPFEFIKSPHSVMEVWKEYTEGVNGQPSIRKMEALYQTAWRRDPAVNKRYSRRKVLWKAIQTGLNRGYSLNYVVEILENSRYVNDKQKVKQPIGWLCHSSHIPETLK
Assay: PBM E-score (8-mer binding enrichment) (E-score (-0.5 to 0.5)); higher = stronger / more preferred TF binding
Settings: protein concentration: 200 nM; construct: GST-full length
Whole data set: some 33,000 sequences, median “E-score (-0.5 to 0.5)” near -0.013, cut for the highest 2% near 0.3. The list comes from a sample in which the highest values are over-represented; it also holds close analogues and randomly drawn sequences.
Label scheme for PBM E-score: lower than 0.2 is rule not met, 0.2 and above is rule met.

Qu. Answer whether PBM E-score of AGACATTG is greater than or equal to 0.2.
Ans. rule met

Qu. Answer whether PBM E-score of ATCACTAC is greater than or equal to 0.2.
Ans. rule not met

Qu. Answer whether PBM E-score of GAGGGAGA is greater than or equal to 0.2.
Ans. rule not met

Qu. Answer whether PBM E-score of AGGACTAA is greater than or equal to 0.2.
Ans. rule met

Qu. Answer whether PBM E-score of AACCTCGT is greater than or equal to 0.2.
Ans. rule not met

Qu. Answer whether PBM E-score of CGGACTTA is greater than or equal to 0.2.
Ans. rule met

Qu. Answer whether PBM E-score of GGACAGAC is greater than or equal to 0.2.
Ans. rule met

Qu. Answer whether PBM E-score of GGACAGAA is greater than or equal to 0.2.
Ans. rule met

Qu. Answer whether PBM E-score of GAGGGACA is greater than or equal to 0.2.
Ans. rule met

Qu. Answer whether PBM E-score of ACACATTA is greater than or equal to 0.2.
Ans. rule not met

Qu. Answer whether PBM E-score of GTGCAACA is greater than or equal to 0.2.
Ans. rule not met

Qu. Answer whether PBM E-score of GAGGGACC is greater than or equal to 0.2.
Ans. rule not met

Qu. Answer whether PBM E-score of AAACAAAA is greater than or equal to 0.2.
Ans. rule not met

Qu. Answer whether PBM E-score of CTGCGATA is greater than or equal to 0.2.
Ans. rule not met

Qu. Answer whether PBM E-score of CAGGTGAA is greater than or equal to 0.2.
Ans. rule not met

Qu. Answer whether PBM E-score of AGACAAAG is greater than or equal to 0.2.
Ans. rule met

Qu. Answer whether PBM E-score of CTACATTA is greater than or equal to 0.2.
Ans. rule not met

Qu. Answer whether PBM E-score of TGGACTAA is greater than or equal to 0.2.
Ans. rule not met

Qu. Answer whether PBM E-score of CAGGGACC is greater than or equal to 0.2.
Ans. rule not met

Qu. Answer whether PBM E-score of AGAAAACT is greater than or equal to 0.2.
Ans. rule not met

Qu. Answer whether PBM E-score of GCCTAAAC is greater than or equal to 0.2.
Ans. rule not met

Qu. Answer whether PBM E-score of ACACAAAA is greater than or equal to 0.2.
Ans. rule met

Qu. Answer whether PBM E-score of AGACAGAA is greater than or equal to 0.2.
Ans. rule not met

Qu. Answer whether PBM E-score of TAGGGAGA is greater than or equal to 0.2.
Ans. rule not met

Qu. Answer whether PBM E-score of CGGTAGTC is greater than or equal to 0.2.
Ans. rule not met

Qu. Answer whether PBM E-score of CTACATTC is greater than or equal to 0.2.
Ans. rule not met

Qu. Answer whether PBM E-score of ATACAAAG is greater than or equal to 0.2.
Ans. rule met

Qu. Answer whether PBM E-score of TAGGGAAA is greater than or equal to 0.2.
Ans. rule not met

Qu. Answer whether PBM E-score of CGACATGC is greater than or equal to 0.2.
Ans. rule met

Qu. Answer whether PBM E-score of CTCTTACC is greater than or equal to 0.2.
Ans. rule not met

Qu. Answer whether PBM E-score of TACCCGTA is greater than or equal to 0.2.
Ans. rule not met

Qu. Answer whether PBM E-score of AAGGGACT is greater than or equal to 0.2.
Ans. rule not met

Qu. Answer whether PBM E-score of AGACATTA is greater than or equal to 0.2.
Ans. rule met

Qu. Answer whether PBM E-score of CCACATTA is greater than or equal to 0.2.
Ans. rule not met

Qu. Answer whether PBM E-score of AGACATGA is greater than or equal to 0.2.
Ans. rule met

Qu. Answer whether PBM E-score of ATACAAAT is greater than or equal to 0.2.
Ans. rule met

Qu. Answer whether PBM E-score of TAAAGACA is greater than or equal to 0.2.
Ans. rule met

Qu. Answer whether PBM E-score of AGACAACT is greater than or equal to 0.2.
Ans. rule not met

Qu. Answer whether PBM E-score of AGGACTTC is greater than or equal to 0.2.
Ans. rule met

Qu. Answer whether PBM E-score of CCACTTGC is greater than or equal to 0.2.
Ans. rule not met

Qu. Answer whether PBM E-score of AAGGGACC is greater than or equal to 0.2.
Ans. rule not met

Qu. Answer whether PBM E-score of AGGACTTA is greater than or equal to 0.2.
Ans. rule met

Qu. Answer whether PBM E-score of CAGGGACG is greater than or equal to 0.2.
Ans. rule not met

Qu. Answer whether PBM E-score of AGGTGCCC is greater than or equal to 0.2.
Ans. rule not met
